# SYSTEM TESTED: human Cav1.2 (Homo sapiens, UniProt Q13936)
# Sequence (Q13936 whole entry): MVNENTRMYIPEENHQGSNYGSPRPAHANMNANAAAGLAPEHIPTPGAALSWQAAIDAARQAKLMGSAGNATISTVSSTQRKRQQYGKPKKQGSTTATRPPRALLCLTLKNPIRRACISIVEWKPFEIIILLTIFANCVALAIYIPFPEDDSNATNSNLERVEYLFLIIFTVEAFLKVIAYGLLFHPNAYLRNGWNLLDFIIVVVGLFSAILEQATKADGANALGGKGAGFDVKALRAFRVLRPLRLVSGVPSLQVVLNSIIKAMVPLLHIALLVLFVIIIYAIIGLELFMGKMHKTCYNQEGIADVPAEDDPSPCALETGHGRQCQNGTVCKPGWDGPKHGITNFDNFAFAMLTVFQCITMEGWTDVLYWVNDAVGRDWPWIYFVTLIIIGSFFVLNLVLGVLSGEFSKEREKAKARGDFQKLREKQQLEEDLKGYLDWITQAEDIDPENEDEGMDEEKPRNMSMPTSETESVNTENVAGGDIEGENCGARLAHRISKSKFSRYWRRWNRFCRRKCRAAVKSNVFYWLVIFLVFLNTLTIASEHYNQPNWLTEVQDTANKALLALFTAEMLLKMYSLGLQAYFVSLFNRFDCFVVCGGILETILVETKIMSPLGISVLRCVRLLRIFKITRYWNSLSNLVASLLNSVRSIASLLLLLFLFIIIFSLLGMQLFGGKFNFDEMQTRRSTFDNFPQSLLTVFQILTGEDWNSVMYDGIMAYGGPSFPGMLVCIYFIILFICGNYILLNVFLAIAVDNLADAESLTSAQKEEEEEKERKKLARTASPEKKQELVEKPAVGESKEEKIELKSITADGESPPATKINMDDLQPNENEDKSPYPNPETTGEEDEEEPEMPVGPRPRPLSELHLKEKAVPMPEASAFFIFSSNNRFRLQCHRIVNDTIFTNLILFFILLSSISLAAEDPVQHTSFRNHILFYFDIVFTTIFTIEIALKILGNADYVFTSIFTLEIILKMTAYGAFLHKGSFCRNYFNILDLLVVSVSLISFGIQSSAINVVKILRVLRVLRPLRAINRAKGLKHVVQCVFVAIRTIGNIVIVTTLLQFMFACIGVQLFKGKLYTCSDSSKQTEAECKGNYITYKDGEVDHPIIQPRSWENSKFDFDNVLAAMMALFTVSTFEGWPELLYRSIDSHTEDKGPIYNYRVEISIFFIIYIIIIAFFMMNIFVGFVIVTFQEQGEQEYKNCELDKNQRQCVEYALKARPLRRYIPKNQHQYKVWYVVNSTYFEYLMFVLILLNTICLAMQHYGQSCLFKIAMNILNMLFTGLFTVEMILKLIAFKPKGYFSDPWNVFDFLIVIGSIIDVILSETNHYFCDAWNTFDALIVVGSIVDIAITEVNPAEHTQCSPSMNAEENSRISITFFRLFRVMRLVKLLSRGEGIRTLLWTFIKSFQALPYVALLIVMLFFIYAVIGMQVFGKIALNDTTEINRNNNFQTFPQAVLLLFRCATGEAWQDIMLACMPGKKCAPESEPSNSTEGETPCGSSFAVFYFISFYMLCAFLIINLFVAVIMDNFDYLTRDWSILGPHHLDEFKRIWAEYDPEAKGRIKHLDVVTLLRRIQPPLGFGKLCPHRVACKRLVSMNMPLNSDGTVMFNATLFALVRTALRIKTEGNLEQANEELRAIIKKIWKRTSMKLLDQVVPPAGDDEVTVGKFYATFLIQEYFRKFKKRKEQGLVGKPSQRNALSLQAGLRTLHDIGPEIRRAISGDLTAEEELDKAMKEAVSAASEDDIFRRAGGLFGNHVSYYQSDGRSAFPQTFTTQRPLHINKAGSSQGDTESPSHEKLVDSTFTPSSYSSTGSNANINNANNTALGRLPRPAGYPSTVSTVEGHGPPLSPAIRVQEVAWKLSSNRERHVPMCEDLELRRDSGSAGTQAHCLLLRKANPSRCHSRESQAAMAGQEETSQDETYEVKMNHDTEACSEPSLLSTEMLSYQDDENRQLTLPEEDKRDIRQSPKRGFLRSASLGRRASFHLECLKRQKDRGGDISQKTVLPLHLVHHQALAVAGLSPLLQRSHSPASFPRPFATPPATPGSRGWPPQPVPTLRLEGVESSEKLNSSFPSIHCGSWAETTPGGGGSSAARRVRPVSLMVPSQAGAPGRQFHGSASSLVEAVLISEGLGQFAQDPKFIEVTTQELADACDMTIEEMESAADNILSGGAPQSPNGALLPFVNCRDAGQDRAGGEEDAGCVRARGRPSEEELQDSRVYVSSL
# TEST: calcium influx assay in HEK293 cells
READOUT NAME: IC50

MOLECULE	READOUT NAME	RESULT VALUE
C#C[C@]1(C)[C@@H](O)[C@@H](COP(=O)(N[C@@H](C)C(=O)OC(C)C)Oc2ccccc2)O[C@H]1n1ccc(=O)[nH]c1=O (stereo partly shown) [MNI-1]	IC50	> 100 µM
